System: 485368-065-R4-J2-PDC spheroids with HUVEC/MSC, viability;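 further: spheroids exposed to compounds for seven days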
Protocol Text: Anticancer human tumor 485368-065-R4-J2-PDC patient-derived pancreatic carcinoma cell line growth inhibition [CLK]; active means viability on the fitted dose curve at most 10% of control; inactive means the rest
Conditions: second compound 3.16 µM; first compound 0.316 µM
Please reply with one of these outcomes: active, inactive

Use these answered entries as a reference point.
Nc1ccccc1NC(=O)c1ccc(CNC(=O)OCc2cccnc2)cc1 + CNC(=O)c1ccc(Nc2nc(OC3CCCC3)c3c(-c4ccc5nc(C)oc5c4)c[nH]c3n2)c(OC)c1; inactive
COc1cccc2c1C(=O)c1c(O)c3c(c(O)c1C2=O)CC(O)(C(=O)CO)CC3OC1CC(N)C(O)C(C)O1 (stereo unspecified) + CNC(=O)c1ccc(Nc2nc(OC3CCCC3)c3c(-c4ccc5nc(C)oc5c4)c[nH]c3n2)c(OC)c1; inactive
Nc1ccn(C2OC(CO)C(O)C2(F)F)c(=O)n1 (stereo unspecified) + CNC(=O)c1ccc(Nc2nc(OC3CCCC3)c3c(-c4ccc5nc(C)oc5c4)c[nH]c3n2)c(OC)c1; inactive
O=c1[nH]cc(F)c(=O)[nH]1 + CNC(=O)c1ccc(Nc2nc(OC3CCCC3)c3c(-c4ccc5nc(C)oc5c4)c[nH]c3n2)c(OC)c1; inactive
C#Cc1c(F)ccc2cc(O)cc(-c3ncc4c(N5CC6CCC(C5)N6)nc(OCC56CCCN5CC(F)C6)nc4c3F)c12 (stereo unspecified) + CNC(=O)c1ccc(Nc2nc(OC3CCCC3)c3c(-c4ccc5nc(C)oc5c4)c[nH]c3n2)c(OC)c1; inactive

Ask: Which outcome was entered for the molecule COc1cccc2c1C(=O)c1c(O)c3c(c(O)c1C2=O)CC(O)(C(=O)CO)CC3OC1CC(N)C(O)C(C)O1 (stereo unspecified) + CN1CCN(c2cc(C(=O)Nc3cc4cc(-c5cnn(C)c5)ccc4cn3)ccn2)CC1 in this test?
Result: active

Ask: Which outcome was entered for the molecule CC(Nc1ccc2c(c1)OCCn1cc(N3C(=O)OCC3C(F)F)nc1-2)C(N)=O (stereo unspecified) + CNC(=O)c1ccc(Nc2nc(OC3CCCC3)c3c(-c4ccc5nc(C)oc5c4)c[nH]c3n2)c(OC)c1 in this test?
Result: inactive

Ask: Which outcome was entered for the molecule C=C(F)C(=O)N1CCN(c2nc(OCC3CCCN3C)nc3c2CCN(c2cccc4cccc(Cl)c24)C3)CC1CC#N (stereo unspecified) + CN1CCN(c2cc(C(=O)Nc3cc4cc(-c5cnn(C)c5)ccc4cn3)ccn2)CC1 in this test?
Result: active

Ask: Which outcome was entered for the molecule CCN1CCN(Cc2ccc(Nc3ncc(F)c(-c4cc(F)c5nc(C)n(C(C)C)c5c4)n3)nc2)CC1 + CN1CCN(c2cc(C(=O)Nc3cc4cc(-c5cnn(C)c5)ccc4cn3)ccn2)CC1 in this test?
Result: active

Ask: Which outcome was entered for the molecule COc1c(OCCCN2CCOCC2)ccc2c3n(c(=NC(=O)c4cnc(N)nc4)nc12)CCN3 + CNC(=O)c1ccc(Nc2nc(OC3CCCC3)c3c(-c4ccc5nc(C)oc5c4)c[nH]c3n2)c(OC)c1 in this test?
Result: inactive

Ask: Which outcome was entered for the molecule O=C(c1cc(Cc2n[nH]c(=O)c3ccccc23)ccc1F)N1CCN(C(=O)C2CC2)CC1 + CN1CCN(c2cc(C(=O)Nc3cc4cc(-c5cnn(C)c5)ccc4cn3)ccn2)CC1 in this test?
Result: active
